biological target: Xenopus GCRP receptor (Xenopus)
Provide the recorded CRE-luc reporter, HEK293T cells with the receptor: Emax (fold induction) for the entries that follow.

INSERT INTO measurements (binder, assay_result) VALUES
  ('YSEATLASDYSRTMDNMLKKNFVEWLLARREKKSDNVIEPY [Chicken GIP]', 32.4),
  ('HTDGMFTSDLTNYLDKMKAKNFVEWLAAIKQQE [Medaka GCRP]', 32),
  ('HSEGTFSSDLTRYLDKMKAKDFVQWLMN [Xenopus GCRP]', 30.4);

Please examine the following record next.
Consider the binder HSEGTFTSDFTRYLDKMKAKDFVHWLINT [Chicken GCRP] and give its measured CRE-luc reporter, HEK293T cells with the receptor: Emax (fold induction).
30.1
